assayRemarks: qHTS Assay for Foot and Mouth Disease Virus Antivirals: Primary Screen against the MLPCN compound library; also: nearly all actives have a fitted effect of over 55% in size
details: FMDV antiviral cell-based qHTS; series mostly up to 57.9 µM
Among all 410,000 compounds or so, about 2,000 (0.49%) were called active. Not shown: some 8% with an inconclusive outcome. Calls follow the shape of the full dose curve; tested in HEK293 reporter line. For the sample, actives were picked, then their nearest neighbours and some compounds at random.
Possible outcomes: yes = active, no = inactive

INSERT INTO measurements (molecule, labelvalue) VALUES
  ('Cc1ccccc1CN1C2=NCCN2c2ccccc21', 'no'),
  ('COc1ccc(C(C)(O)c2nc(-c3ccc(S(C)(=O)=O)cc3)cs2)cc1 (stereo unspecified)', 'no'),
  ('Cc1cc(-c2nc3ccccc3s2)ccc1N', 'yes'),
  ('CC(C)Oc1ccc(C(=O)NCC(=O)N2CCN(S(=O)(=O)/C=C/c3ccccc3)CC2)cc1', 'no'),
  ('C=CC[C@@H](CC(=O)OC(C)(C)C)C(=O)OC[C@@H]1CCCN1C(=O)[C@@H](CC=C)CC(=O)N[C@H](CO)Cc1ccccc1', 'yes'),
  ('c1ccc(Sc2cccc3ccccc23)c(CNC2=NCCN2)c1', 'no'),
  ('CC(C)CC(=O)Nc1ccccc1N1CCN(c2ccccc2)CC1', 'no'),
  ('C=CC[C@@H](CC(=O)OC(C)(C)C)C(=O)OC[C@@H]1CCCN1C(=O)[C@@H](CC=C)CC(=O)N[C@@H](CO)Cc1ccccc1', 'no'),
  ('CN(C(=O)OC(C)(C)C)c1ccc(-c2nc3ccccc3s2)cc1', 'no'),
  ('COc1ccc(C(C)(O)c2nc(-c3ccncc3)cs2)cc1 (stereo unspecified)', 'no'),
  ('Cc1cc(-c2nc3cc(F)ccc3s2)ccc1N', 'yes');
